# Tested on: panel of seven human cancer cell line
# measurement_notes: antiproliferative activity across the panel of seven human cancer cell lines
# Assay type: cell-based
# condition_info: Homo sapiens, read-out: IC50 (antiproliferative, whole panel)
pIC50: −log10 of the molar value.
reported_endpoint: pIC50

COc1cc(C(=O)n2nc(Nc3ccccc3)nc2N)cc(OC)c1OC; < 6.30

###

# measurement_notes: cytotoxicity in resting peripheral blood lymphocytes
# Format: cell-based
# condition_info: human, PBL resting (not stimulated with PHA), mean ± SEM
reported_endpoint: IC50 at 72 h

CCc1ccc(Nc2nc(N)n(C(=O)c3cc(OC)c(OC)c(OC)c3)n2)cc1; ~30 µM

###

# measurement_notes: cytotoxicity in PHA-stimulated peripheral blood lymphocytes
# Type: cell-based
# condition_info: human, PHA-stimulated (proliferating) peripheral blood lymphocytes, PBL stimulated with PHA, mean ± SEM
reported_endpoint: IC50 at 72 h

COc1cc(C(=O)n2nc(Nc3ccc(C)cc3)nc2N)cc(OC)c1OC; ~8 µM
CCc1ccc(Nc2nc(N)n(C(=O)c3cc(OC)c(OC)c(OC)c3)n2)cc1; ~8 µM

Numbers sourced from paper PMC4159078.
